assayed target: human androgen receptor (Homo sapiens)
Construct: expressed in transfected cells
Sequence (P10275 whole entry): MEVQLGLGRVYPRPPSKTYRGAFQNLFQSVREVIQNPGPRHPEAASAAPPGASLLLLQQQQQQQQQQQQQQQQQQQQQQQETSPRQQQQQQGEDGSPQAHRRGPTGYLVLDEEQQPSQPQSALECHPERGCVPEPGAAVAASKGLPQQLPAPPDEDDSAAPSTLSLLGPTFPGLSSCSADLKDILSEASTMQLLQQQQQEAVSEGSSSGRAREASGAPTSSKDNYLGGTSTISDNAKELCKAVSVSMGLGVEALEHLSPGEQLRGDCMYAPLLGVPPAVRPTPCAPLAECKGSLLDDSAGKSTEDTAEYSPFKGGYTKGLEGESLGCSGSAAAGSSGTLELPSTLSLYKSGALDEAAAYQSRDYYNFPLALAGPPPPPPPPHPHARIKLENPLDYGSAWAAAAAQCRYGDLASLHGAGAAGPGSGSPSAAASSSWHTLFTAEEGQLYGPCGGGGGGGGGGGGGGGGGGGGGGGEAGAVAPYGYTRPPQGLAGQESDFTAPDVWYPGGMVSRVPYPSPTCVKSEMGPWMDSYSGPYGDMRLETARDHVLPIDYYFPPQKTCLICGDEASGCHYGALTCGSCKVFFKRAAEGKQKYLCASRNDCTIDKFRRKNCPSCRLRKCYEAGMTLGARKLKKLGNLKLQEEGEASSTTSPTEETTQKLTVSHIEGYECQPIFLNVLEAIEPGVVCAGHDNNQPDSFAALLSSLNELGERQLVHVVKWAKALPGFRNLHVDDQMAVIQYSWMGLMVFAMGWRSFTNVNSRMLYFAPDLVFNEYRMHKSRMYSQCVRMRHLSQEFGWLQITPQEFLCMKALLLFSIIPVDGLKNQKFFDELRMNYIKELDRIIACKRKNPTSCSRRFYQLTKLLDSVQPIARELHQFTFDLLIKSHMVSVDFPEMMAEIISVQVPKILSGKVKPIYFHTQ
measurement protocol: Measurement of agonist effect on androgen receptor (reporter gene assay, 11A11B2 cells)
Assay type: cell-based
experimental context: compound concentration showing a transcription activity of 5% (0.1 nmol/L DHT = 100%, assay medium alone = 0%), 48 hours
assay metric: EC5

molecule	assayed target	endpoint result
CC1(C)C(=O)N(c2ccc(C#N)c(C(F)(F)F)c2)C(=S)N1c1ccc(NC(=O)OCCO)nc1 [Example 60]	human androgen receptor (Homo sapiens)	>10 µM
CCS(=O)(=O)N1CCC(N2C(=O)N(c3ccc(C#N)c(C(F)(F)F)c3C)C(=O)C2(C)C)CC1 [Example 10]	human androgen receptor (Homo sapiens)	>10 µM
CC1(C)C(=O)N(c2ccc(C#N)c(C(F)(F)F)c2)C(=O)N1c1ccc(Cl)c(NC(=O)OCCCCO)c1 [Example 33]	human androgen receptor (Homo sapiens)	>10 µM
CC1(C)C(=O)N(c2ccc(C#N)c(C(F)(F)F)c2)C(=S)N1c1ccc(Cl)c(NC(=O)CCC(N)=O)c1 [Example 67]	human androgen receptor (Homo sapiens)	>10 µM
CCCS(=O)(=O)N1CCC(N2C(=S)N(c3ccc(C#N)c(Cl)c3)C(=O)C2(C)C)CC1 [Example 8]	human androgen receptor (Homo sapiens)	>10 µM
CC1(C)C(=O)N(c2ccc(C#N)c(Cl)c2)C(=S)N1c1ccc2sc(NC(=O)OCCO)nc2c1 [Example 66]	human androgen receptor (Homo sapiens)	6 µM
CC1(C)C(=O)N(c2ccc(C#N)c(C(F)(F)F)c2)C(=O)N1c1ccc(Cl)c(NC(=O)OCCN)c1 [Example 37]	human androgen receptor (Homo sapiens)	>10 µM

====

assayed target: human androgen receptor (Homo sapiens)
Construct: expressed in transfected cells
measurement protocol: Measurement of agonist effect on androgen receptor (reporter gene assay, 11A11B2 cells)
Type: cell-based
experimental context: compound concentration showing a transcription activity of 5% (0.1 nmol/L DHT = 100%, assay medium alone = 0%), 48 hours
// reported EC5 per item

compound	EC5
CCOC(=O)N1CCC(N2C(=S)N(c3ccc(C#N)c(Cl)c3)C(=O)C2(C)C)CC1 [Example 2]	8 µM
CN(C)CCOC(=O)Nc1cc(N2C(=O)N(c3ccc(C#N)c(Cl)c3)C(=O)C2(C)C)ccc1Cl [Example 31]	>10 µM
CCCNC(=O)N1CCC(N2C(=S)N(c3ccc(C#N)c(Cl)c3)C(=O)C2(C)C)CC1 [Example 41]	>10 µM
CC(=O)NCCN1C(=S)N(c2ccc(C#N)c(C(F)(F)F)c2)C(=O)C1(C)C [Comparative Example 2, reference compound]	3 µM
CC1(C)C(=O)N(c2ccc(C#N)c(C(F)(F)F)c2)C(=O)N1c1ccc(NC(=O)CN2CCNCC2)c(Cl)c1 [Example 21]	>10 µM
COc1cc(N2C(=O)C(C)(C)N(c3ccc(Cl)c(NC(=O)OCCN(C)C)c3)C2=S)ccc1C#N [Example 54]	>10 µM
COc1cc(N2C(=O)C(C)(C)N(c3ccc4sc(NC(N)=O)nc4c3)C2=S)ccc1C#N [Example 19]	>10 µM
CC1(C)C(=O)N(c2ccc(C#N)c(Cl)c2)C(=S)N1c1ccc(Cl)c(NC(=O)OCC(O)CO)c1 (centres unmarked) [Example 50]	>10 µM
CN(C)CCOC(=O)Nc1cc(N2C(=S)N(c3ccc(C#N)c(Cl)c3)C(=O)C2(C)C)ccc1Cl [Example 53]	>10 µM
CC1(C)C(=O)N(c2ccc(C#N)c(Cl)c2)C(=S)N1c1ccc2sc(NC(=O)NCCO)nc2c1 [Example 63]	>10 µM
CCNC(=O)N1CCC(N2C(=S)N(c3ccc(C#N)c(C(F)(F)F)c3)C(=O)C2(C)C)CC1 [Example 38]	>10 µM
CCS(=O)(=O)N1CCC(N2C(=S)N(c3ccc(C#N)c(Cl)c3)C(=O)C2(C)C)CC1 [Example 9]	>10 µM
COc1cc(N2C(=O)N(c3ccc(Cl)c(NC(=O)OC(C)C)c3)C(C)(C)C2=O)ccc1C#N [Example 25]	>10 µM
CN(C)CCOC(=O)N1CCC(N2C(=S)N(c3ccc(C#N)c(C(F)(F)F)c3)C(=O)C2(C)C)CC1 [Example 36]	>10 µM
COc1cc(N2C(=O)C(C)(C)N(c3ccc(Cl)c(NC(=O)OCC(O)CO)c3)C2=S)ccc1C#N (centres unmarked) [Example 51]	>10 µM
CC(=O)N1CCC(N2C(=S)N(c3ccc(C#N)c(Cl)c3)C(=O)C2(C)C)CC1 [Example 6]	>10 µM
CCNC(=O)N1CCC(N2C(=S)N(c3ccc(C#N)c(Cl)c3)C(=O)C2(C)C)CC1 [Example 40]	>10 µM

Values compiled from patent US8470829B2.
